test system: antibody negative serums; assay: False positive reactions of modified RBCs with antibody negative serums/plasma; assay type: cell-based, human; set-up: key: 0 or ‘−’ no agglutination; 0 or ‘−’ no agglutination; 1+ or 3=very weak agglutination; 1+ or 3=very weak agglutination; 2+ or 5=weak agglutination; 2+ or 5=weak agglutination; 3+ or 8=moderate strong agglutination; 3+ or 8=moderate strong agglutination; 4+ or 10/12=strong agglutination; 4+ or 10/12=strong agglutination; 4+ or 10/12=strong agglutination; conditions: blood donor plasma; construct 50 μg/ml (2 hours, 37° C.)
No end group written: not given here.
Here the recorded Reaction score BioVue AHG, PAC sample 51 is given for each entry.
A bare number is all that is needed in reply.

Worked cases, Reaction score BioVue AHG, PAC sample 51 given:
| SUBSTANCE | Reaction score BioVue AHG, PAC sample 51 |
| --- | --- |
| M34: DOPE peptide-lipid construct: MUTK peptide SSQTNDKHKR, leader c, spacer CMG(2) (SSQTNDKHKRC; also: DOPE peptide-lipid construct via leader Cys, spacer CMG(2)) | 5 |
| M22: DOPE peptide-lipid construct: MUTK peptide SQTNDKHKRD, leader c, spacer CMG(2) (SQTNDKHKRDC; also: DOPE peptide-lipid construct via leader Cys, spacer CMG(2)) | 0 |
| M36: DOPE peptide-lipid construct: MUTK peptide SQTNDKHKRDT, leader c, spacer CMG(2) (SQTNDKHKRDTC; also: DOPE peptide-lipid construct via leader Cys, spacer CMG(2)) | 0 |
| M37: DOPE peptide-lipid construct: MUTK peptide TNDKHKRDTYP, leader c, spacer CMG(2) (TNDKHKRDTYPC; also: DOPE peptide-lipid construct via leader Cys, spacer CMG(2)) | 0 |

Now turn to the next substance.
Entry M40: DOPE peptide-lipid construct: Hil peptide EEETGETGQL, leader c, spacer CMG(2) (EEETGETGQLC; also: DOPE peptide-lipid construct via leader Cys, spacer CMG(2)) : reported Reaction score BioVue AHG, PAC sample 51 = ?
0
